Some molecules, each annotated with its measured pIC50.
- ASSAY_TARGET: Kappa-type opioid receptor (Homo sapiens, UniProt P41145)
- Sequence (P41145 whole entry): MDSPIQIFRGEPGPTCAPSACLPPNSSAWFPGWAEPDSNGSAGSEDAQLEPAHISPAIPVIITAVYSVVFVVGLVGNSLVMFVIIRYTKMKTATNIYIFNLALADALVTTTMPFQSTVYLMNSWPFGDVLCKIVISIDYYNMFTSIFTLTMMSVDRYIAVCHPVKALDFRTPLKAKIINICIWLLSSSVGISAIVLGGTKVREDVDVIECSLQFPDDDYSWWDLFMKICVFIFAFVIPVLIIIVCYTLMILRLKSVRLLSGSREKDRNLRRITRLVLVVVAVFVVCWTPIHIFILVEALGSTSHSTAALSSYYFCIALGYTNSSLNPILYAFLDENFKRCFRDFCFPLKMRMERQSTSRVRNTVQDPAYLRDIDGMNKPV
- ASSAY_PROTOCOL: Antagonist activity at recombinant human kappa-opioid receptor expressed in CHO cell membranes assessed as inhibition of U69593-induced [35S]GTPgammaS binding after 4 hrs by microbeta scintillation counting method
Scale: pIC50 equals -log10([C]), with [C] in mol/L.

MOLECULE | OBSERVED_RESULT
Cc1cc(C)cc(C2CCCN2Cc2ccc(Oc3ccc(C(N)=O)cc3F)c(Cl)c2)c1 (configuration not stated) | 8.03

From here, focus on the item given below.
Incoming: Give a short answer stating reported pIC50 for Cc1cc(C)cc(C2CCCN2Cc2ccc(Oc3ccc(C(N)=O)cc3F)cc2)c1 (racemic) .
Outgoing: 8.18
